These measurements were taken from patent US20240360178A1.

Target: human PD-1 (Jurkat-PD-1 cells) / PE-labeled human PD-L1-Ig (Homo sapiens)
Construct: expressed in transfected cells; host or cells: Jurkat cell line over-expressing human PD-1
Assay: Jurkat-PD-1 Cell Binding High-Content Screening Assay (CBA); Jurkat hPD1-PDL1 assay
Details: Jurkat cell line over-expressing human PD-1; PE-labeled PD-L1-Ig 20 nM final; compound incubated 2 hours at 37° C.; read-out: Jurkat HPD1-PDL1 IC50
From the text: The ability of the compounds of formula (I) to bind to PD-1 was investigated using a Jurkat-PD-1 Cell Binding High-Content Screening Assay. Jurkat-PD-1 Cell Binding High-Content Screening Assay (CBA) Phycoerythrin (PE) was covalently linked to the Ig epitope tag of human PD-L1-Ig and fluorescently-labeled PD-L1-Ig was used for binding studies with a Jurkat cell line over-expressing human PD-1 (Jurkat-PD-1). […]
pIC50: −log10 of the molar value. Positions of bridges follow the written chain, without caps; N, C: chain ends. Non-standard residues stand in square brackets, D forms with d. Residues, ends and D or L forms follow the SMILES beside them. ξ: configuration not given here. Bip = N[C@@H](Cc1ccc(-c2ccccc2)cc1)C(=O)O; NMeF = CN[C@@H](Cc1ccccc1)C(=O)O; ξR = N=C(N)NCCCC(N)C(=O)O; NMeA = CN[C@@H](C)C(=O)O; Orn = NCCC[C@H](N)C(=O)O; Sar = CNCC(=O)O
Property Label: pIC50

>>> quantitative_result("CC(C)C[C@@H]1NC(=O)[C@H](CCCNC(=N)N)NC(=O)[C@H](Cc2ccccc2)N(C)C(=O)[C@H](C)N(C)C(=O)[C@H](CCCN)NC(=O)[C@H](Cc2ccc(-c3ccccc3)cc2)NC(=O)[C@H](C(C)C)NC(=O)[C@H](Cc2c[nH]c3ccccc23)NC(=O)[C@H](CC(=O)O)NC(=O)[C@H](Cc2ccc(O)cc2)NC(=O)[C@H](CCC(N)=O)NC(=O)CSC[C@@H](C(=O)NCC(N)=O)NC(=O)[C@H](CO)NC(=O)[C@H](C(C)C)NC1=O [Example 1294] ({CH2CO}-QYDWV[Bip][Orn][NMeA][NMeF]RLVSCG-NH2; thioether N-14)")
6.85
>>> quantitative_result("CC(C)C[C@@H]1NC(=O)C(CCCNC(=N)N)NC(=O)[C@H](Cc2ccccc2)N(C)C(=O)[C@H](C)N(C)C(=O)[C@H](CCCNC(=N)N)NC(=O)[C@H](Cc2ccc(-c3ccccc3)cc2)NC(=O)[C@H](C(C)C)NC(=O)[C@H](Cc2c[nH]c3ccccc23)NC(=O)[C@H](CC(=O)O)NC(=O)[C@H](Cc2ccc(O)cc2)NC(=O)[C@H](Cc2ccccc2)NC(=O)CSC[C@@H](C(=O)NCC(N)=O)NC(=O)[C@H](CCCNC(=N)N)NC(=O)[C@H](C(C)C)NC1=O (stereo partly shown) [Example 1220] ({CH2CO}-FYDWV[Bip]R[NMeA][NMeF][ξR]LVRCG-NH2; thioether N-14)")
6.14
>>> quantitative_result("CC(C)C[C@@H]1NC(=O)[C@H](CC(N)=O)NC(=O)CN(C)C(=O)[C@H](C)N(C)C(=O)[C@H](C(C)C)NC(=O)[C@H](Cc2ccc(-c3ccccc3)cc2)NC(=O)[C@H](CC(C)C)NC(=O)[C@H](Cc2c[nH]c3ccccc23)NC(=O)[C@H](CC(=O)O)NC(=O)[C@H](Cc2ccc(O)cc2)NC(=O)[C@H](Cc2ccccc2)NC(=O)CSC[C@@H](C(=O)NCC(N)=O)NC(=O)[C@H](CO)NC(=O)[C@H](CCCCN)NC1=O [Example 1104] ({CH2CO}-FYDWL[Bip]V[NMeA][Sar]NLKSCG-NH2; thioether N-14)")
6.49
>>> quantitative_result("CC(C)C[C@@H]1NC(=O)[C@H](CCCNC(=N)N)NC(=O)[C@H](Cc2ccccc2)N(C)C(=O)[C@H](C)N(C)C(=O)[C@H](CCCNC(=N)N)NC(=O)[C@H](Cc2ccc(-c3ccccc3)cc2)NC(=O)[C@H](C(C)C)NC(=O)[C@H](Cc2c[nH]c3ccccc23)NC(=O)[C@H](CC(=O)O)NC(=O)[C@H](Cc2ccc(O)cc2)NC(=O)[C@H](CC(N)=O)NC(=O)CSC[C@@H](C(=O)NCC(N)=O)NC(=O)[C@H]([C@@H](C)O)NC(=O)[C@H](C(C)C)NC1=O [Example 1310] ({CH2CO}-NYDWV[Bip]R[NMeA][NMeF]RLVTCG-NH2; thioether N-14)")
6.47

----------
Molecular target: human PD-1 (Jurkat-PD-1 cells) / PE-labeled human PD-L1-Ig (Homo sapiens, UniProt Q15116)
Construct: expressed in transfected cells; host or cells: Jurkat cell line over-expressing human PD-1
Sequence (Q15116 25-288): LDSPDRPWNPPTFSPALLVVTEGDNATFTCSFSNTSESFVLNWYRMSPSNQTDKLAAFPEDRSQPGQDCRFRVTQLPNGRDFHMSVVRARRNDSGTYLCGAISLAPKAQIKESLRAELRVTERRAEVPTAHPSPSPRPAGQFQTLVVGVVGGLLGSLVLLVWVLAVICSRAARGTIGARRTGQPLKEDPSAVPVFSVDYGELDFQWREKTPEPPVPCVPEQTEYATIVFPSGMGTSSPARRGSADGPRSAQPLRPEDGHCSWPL
Experiment: Jurkat-PD-1 Cell Binding High-Content Screening Assay (CBA); Jurkat hPD1-PDL1 assay
Conditions: Jurkat cell line over-expressing human PD-1; PE-labeled PD-L1-Ig 20 nM final; compound incubated 2 hours at 37° C.; read-out: Jurkat HPD1-PDL1 IC50
Positions of bridges follow the written chain, without caps; N, C: chain ends. Non-standard residues stand in square brackets, D forms with d. Residues, ends and D or L forms follow the SMILES beside them. ξ: configuration not given here. Bip = N[C@@H](Cc1ccc(-c2ccccc2)cc1)C(=O)O; NMeF = CN[C@@H](Cc1ccccc1)C(=O)O; dDab = NCC[C@@H](N)C(=O)O; NMeA = CN[C@@H](C)C(=O)O; ξF = NC(Cc1ccccc1)C(=O)O; Dab = NCC[C@H](N)C(=O)O; Sar = CNCC(=O)O
Recorded measurements of IC50, one per entry
Property Label: IC50 (nM)

>>> quantitative_result("CC(C)C[C@@H]1NC(=O)[C@H](Cc2c[nH]c3ccccc23)NC(=O)[C@H](CC(=O)O)NC(=O)[C@H](Cc2ccc(O)cc2)NC(=O)C(Cc2ccccc2)NC(=O)CSC[C@@H](C(=O)NCC(N)=O)NC(=O)[C@@H](CO)NC(=O)[C@H](C(C)C)NC(=O)[C@H](CC(C)C)NC(=O)[C@H](CC(N)=O)NC(=O)CN(C)C(=O)[C@H](C)N(C)C(=O)[C@H](C(C)C)NC(=O)[C@H](Cc2ccc(-c3ccccc3)cc2)NC1=O (stereo partly drawn) [Example 1043] ({CH2CO}-[ξF]YDWL[Bip]V[NMeA][Sar]NLV[dS]CG-NH2; thioether N-14)")
80
>>> quantitative_result("CC(C)C[C@@H]1NC(=O)[C@H](Cc2c[nH]c3ccccc23)NC(=O)[C@H](CC(=O)O)NC(=O)[C@H](Cc2ccc(O)cc2)NC(=O)[C@H](Cc2ccccc2)NC(=O)CSC[C@@H](C(=O)N[C@@H](C)C(N)=O)NC(=O)[C@H](CO)NC(=O)[C@H](C(C)C)NC(=O)[C@H](CC(C)C)NC(=O)[C@H](CC(N)=O)NC(=O)[C@H]2CCCN2C(=O)[C@@H](CCN)NC(=O)[C@H](C(C)C)NC(=O)[C@H](Cc2ccc(-c3ccccc3)cc2)NC1=O [Example 1195] ({CH2CO}-FYDWL[Bip]V[dDab][dP]NLVSCA-NH2; thioether N-14)")
370
>>> quantitative_result("CC(C)C[C@@H]1NC(=O)[C@H](CCN)NC(=O)[C@H](Cc2ccccc2)N(C)C(=O)[C@H](C)N(C)C(=O)[C@H](CCCNC(=N)N)NC(=O)[C@H](Cc2ccc(-c3ccccc3)cc2)NC(=O)[C@H](C(C)C)NC(=O)[C@H](Cc2c[nH]c3ccccc23)NC(=O)[C@H](CC(=O)O)NC(=O)[C@H](Cc2ccc(O)cc2)NC(=O)[C@H](CCC(N)=O)NC(=O)CSC[C@@H](C(=O)NCC(N)=O)NC(=O)[C@H](CO)NC(=O)[C@H](C(C)C)NC1=O [Example 1309] ({CH2CO}-QYDWV[Bip]R[NMeA][NMeF][Dab]LVSCG-NH2; thioether N-14)")
340

----------
Recorded measurements of IC50, one per entry
Target: human PD-1 (Jurkat-PD-1 cells) / PE-labeled human PD-L1-Ig (Homo sapiens, UniProt Q15116)
Construct: expressed in transfected cells; host or cells: Jurkat cell line over-expressing human PD-1
Assay: Jurkat-PD-1 Cell Binding High-Content Screening Assay (CBA); Jurkat hPD1-PDL1 assay
Conditions: Jurkat cell line over-expressing human PD-1; PE-labeled PD-L1-Ig 20 nM final; compound incubated 2 hours at 37° C.; read-out: Jurkat HPD1-PDL1 IC50
Positions of bridges follow the written chain, without caps; N, C: chain ends. Non-standard residues stand in square brackets, D forms with d. Residues, ends and D or L forms follow the SMILES beside them. Phe(3,4,5-F3) = N[C@@H](Cc1cc(F)c(F)c(F)c1)C(=O)O; Bip = N[C@@H](Cc1ccc(-c2ccccc2)cc1)C(=O)O; dPro(4S-NH2) = N[C@@H]1CN[C@@H](C(=O)O)C1; NMeF = CN[C@@H](Cc1ccccc1)C(=O)O; NMeA = CN[C@@H](C)C(=O)O; Dab = NCC[C@H](N)C(=O)O; Sar = CNCC(=O)O
Property Label: IC50 (nM)

>>> quantitative_result("CC(C)C[C@@H]1NC(=O)[C@H](Cc2c[nH]c3ccccc23)NC(=O)[C@H](CC(=O)O)NC(=O)[C@H](Cc2ccc(O)cc2)NC(=O)[C@H](Cc2ccccc2)NC(=O)CSC[C@@H](C(=O)N[C@@H](C)C(N)=O)NC(=O)[C@H](CO)NC(=O)[C@H](C(C)C)NC(=O)[C@H](CC(C)C)NC(=O)[C@H](CC(N)=O)NC(=O)[C@H]2C[C@H](N)CN2C(=O)[C@H]2CCCN2C(=O)[C@H](C(C)C)NC(=O)[C@H](Cc2ccc(-c3ccccc3)cc2)NC1=O [Example 1175] ({CH2CO}-FYDWL[Bip]V[dP][dPro(4S-NH2)]NLVSCA-NH2; thioether N-14)")
500
>>> quantitative_result("CC(C)C[C@@H]1NC(=O)[C@H](CCCNC(=N)N)NC(=O)[C@H](Cc2ccccc2)N(C)C(=O)[C@H](CCCNC(=N)N)NC(=O)[C@H](CCCNC(=N)N)NC(=O)[C@H](Cc2ccc(-c3ccccc3)cc2)NC(=O)[C@H](C(C)C)NC(=O)[C@H](Cc2c[nH]c3ccccc23)NC(=O)[C@H](CC(=O)O)NC(=O)[C@H](Cc2ccc(O)cc2)NC(=O)[C@H](Cc2cnc[nH]2)NC(=O)CSC[C@@H](C(=O)NCC(N)=O)NC(=O)[C@H](CO)NC(=O)[C@H](C(C)C)NC1=O [Example 1315] ({CH2CO}-HYDWV[Bip]RR[NMeF]RLVSCG-NH2; thioether N-14)")
530
>>> quantitative_result("CC(C)C[C@@H]1NC(=O)[C@H](Cc2c[nH]c3ccccc23)NC(=O)[C@H](CC(=O)O)NC(=O)[C@H](Cc2cc(F)c(F)c(F)c2)NC(=O)[C@H](Cc2ccccc2)NC(=O)CSC[C@@H](C(=O)N[C@@H](C)C(N)=O)NC(=O)[C@H](CO)NC(=O)[C@H](C(C)C)NC(=O)[C@H](CC(C)C)NC(=O)[C@H](CC(N)=O)NC(=O)CN(C)C(=O)[C@H](C)N(C)C(=O)[C@H](C(C)C)NC(=O)[C@H](Cc2ccc(-c3ccccc3)cc2)NC1=O [Example 1146] ({CH2CO}-F[Phe(3,4,5-F3)]DWL[Bip]V[NMeA][Sar]NLVSCA-NH2; thioether N-14)")
650
>>> quantitative_result("CC(C)C[C@@H]1NC(=O)[C@H](CCCNC(=N)N)NC(=O)[C@H](Cc2ccccc2)N(C)C(=O)[C@H](C)N(C)C(=O)[C@H](CCCNC(=N)N)NC(=O)[C@H](Cc2ccc(-c3ccccc3)cc2)NC(=O)[C@H](C(C)C)NC(=O)[C@H](Cc2c[nH]c3ccccc23)NC(=O)[C@H](CC(=O)O)NC(=O)[C@H](Cc2ccc(O)cc2)NC(=O)[C@H](Cc2ccccc2)NC(=O)CSC[C@@H](C(=O)NCC(N)=O)NC(=O)[C@H](CCN)NC(=O)[C@H](C(C)C)NC1=O [Example 1332] ({CH2CO}-FYDWV[Bip]R[NMeA][NMeF]RLV[Dab]CG-NH2; thioether N-14)")
790
